For each entry below, report its protein stability index value.
# Test system: Saccharomyces cerevisiae
# PROTOCOL NOTES: protein stability index of tFT-peptide fusion (C-terminal peptide) (PSI (0-1 scale)); higher = more stable (slower turnover)
# TEST PARAMETERS: genetic background: wild type; temperature: 30 C
I'd appreciate a reply containing only the number, no unit.

Task: Item ILRPLELKYFGR [FCY2 C-terminal 12 aa] has what recorded protein stability index?
Result: 0.675

Task: Now the same for EQQNFEKCNEYI [NPL6 C-terminal 12 aa]
Result: 0.655

Task: Further, for LTHQSLLATARK [KIP3 C-terminal 12 aa] ?
Result: 0.688

Task: What about LPGINSIFKNIF [TOD6 C-terminal 12 aa] ?
Result: 0.722

Task: Also need TSDQKNKRTQFS [RPB9 C-terminal 12 aa] , thanks.
Result: 0.667

Task: Field entry: QLMYEQDDEEVP [HAP3 C-terminal 12 aa]
Result: 0.646

---

Kindly supply the reported protein stability index values for the records listed here.
# Tested on: Saccharomyces cerevisiae
# PROTOCOL NOTES: protein stability index of tFT-peptide fusion (C-terminal peptide) (PSI (0-1 scale)); higher = more stable (slower turnover)
# TEST PARAMETERS: genetic background: wild type; temperature: 37 C

Task: Field: protein stability index (Saccharomyces cerevisiae). Entry: GFVISSCRLFIL
Result: 0.399

Task: Try the sequence SFTPPRVCLCFS
Result: 0.496

Task: Cool, now HGVRLHTVWVGG
Result: 0.544

Task: Now try LPHPLPFCFSLY .
Result: 0.668

Task: Same read-out for GLLLVWAALGFV ?
Result: 0.439

Task: Note, next up: VLLSSSLVFLIS
Result: 0.575

Task: Next entry: VAFGVASGWCWF
Result: 0.69

Task: # iterate: GVLFHIVLHFMV
Result: 0.305

Task: Can you check FSVLRLVIVSLL next?
Result: 0.0783

Task: Try this sequence too: WCFFFVGCCCFG
Result: 0.537

Task: Lookup LWVTRVYCLLVC
Result: 0.0739

Task: Input AGTLLLGYGILA
Result: 0.486

Task: Now the same for HDRLRGVFWRVP
Result: 0.575

Task: Same for VFLPVMVFFTFS
Result: 0.469

Task: Ok, now QVSHLFAAVQLA
Result: 0.573

Task: Request: YFFFPILCFCFF
Result: 0.437

Task: Then this sequence: FFSPFFFFLFRL
Result: 0.397

Task: What do we get for NAPSAIQKNKKC ?
Result: 0.515

Task: Same lookup for RRLRPQTVAFLS , please.
Result: 0.278

Task: Cool, now WISVRIFISCFF
Result: 0.271

Task: Entry to check: CKRWGVVSYVFV
Result: 0.61

Task: Same lookup for SLCSRLVVVAWF , please.
Result: 0.553

Task: Likewise for VGAVGVCILFVW ?
Result: 0.43

Task: Also, PFFCFLLFCFSL please.
Result: 0.529

Task: Now this one: PFLCLPFLLVSR
Result: 0.471

Task: // repeat for VVQCRFPTPCVV and report
Result: 0.496

Task: Here is the next sequence: VGVVLWVWGLGD
Result: 0.61

Task: Proceed to IRSLRPFLLPLF
Result: 0.543

Task: Another sequence to check: LFPVFFPLFAPA
Result: 0.365

Task: Likewise for ACFLFPSHLLIS ?
Result: 0.302
